These entries and their values trace back to patent US4877881A.

- Tested Target: cyclooxygenase (Rattus norvegicus, UniProt Q63921)
- Construct: RBL-1 intact cell cyclooxygenase IC50 values; endogenous in cells
- Sequence (Q63921 27-602): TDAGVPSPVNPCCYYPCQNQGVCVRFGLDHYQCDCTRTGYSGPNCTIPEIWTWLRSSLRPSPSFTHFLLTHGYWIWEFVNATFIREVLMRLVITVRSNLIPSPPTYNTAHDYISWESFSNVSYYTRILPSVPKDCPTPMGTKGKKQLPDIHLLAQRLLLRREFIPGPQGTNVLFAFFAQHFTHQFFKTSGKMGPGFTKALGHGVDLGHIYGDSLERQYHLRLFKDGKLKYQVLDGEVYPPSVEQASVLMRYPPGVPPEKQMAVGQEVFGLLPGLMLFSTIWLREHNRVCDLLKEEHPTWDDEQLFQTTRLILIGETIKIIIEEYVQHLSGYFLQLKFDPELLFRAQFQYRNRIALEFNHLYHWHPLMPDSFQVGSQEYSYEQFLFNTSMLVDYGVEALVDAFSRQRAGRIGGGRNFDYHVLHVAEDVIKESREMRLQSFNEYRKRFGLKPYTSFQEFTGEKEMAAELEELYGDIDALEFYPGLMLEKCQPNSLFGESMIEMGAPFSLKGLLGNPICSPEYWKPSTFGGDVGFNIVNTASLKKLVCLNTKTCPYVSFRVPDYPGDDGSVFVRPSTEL
- Assay Name: ARBC Whole Cell Cyclooxygenase Assay in RBL-1 cells (PGF2α RIA)
- Condition Set: RBL-1 intact cell cyclooxygenase; A23187 5 μM
pIC50: −log10 of the molar value.
Measurement Label: pIC50

[[record]]
compound = "Cc1cc(C(=Cc2cc(C)c(O)c(C)c2)C(=O)O)on1 [Example 52]"
measurement_label = "pIC50"
test_result = "< 4.70"

[[record]]
compound = "Cc1cc(C=Cc2cc(C(C)(C)C)c(O)c(C(C)(C)C)c2)nn1CC(=O)O [Example 10Q]"
measurement_label = "pIC50"
test_result = "< 4.52"

[[record]]
compound = "COC(=O)Cn1nc(C=Cc2cc(C(C)(C)C)c(O)c(C(C)(C)C)c2)cc1C [Example 10G-1]"
measurement_label = "pIC50"
test_result = "< 4.52"


Fill blank: measured pIC50 of the compound COc1cc(C=Cc2cc(C)n(CC(=O)O)n2)cc(OC)c1O [Example 10N] is ____.
< 4.52
